Data provenance: paper PMC11931385

Listed here are binders together with their documented Kd.
# target or test system: T1, Rb^P D697E (human, UniProt P06400 380-788, D697E)
# T1 construct: also called variant 62
# T1 sequence (looked up): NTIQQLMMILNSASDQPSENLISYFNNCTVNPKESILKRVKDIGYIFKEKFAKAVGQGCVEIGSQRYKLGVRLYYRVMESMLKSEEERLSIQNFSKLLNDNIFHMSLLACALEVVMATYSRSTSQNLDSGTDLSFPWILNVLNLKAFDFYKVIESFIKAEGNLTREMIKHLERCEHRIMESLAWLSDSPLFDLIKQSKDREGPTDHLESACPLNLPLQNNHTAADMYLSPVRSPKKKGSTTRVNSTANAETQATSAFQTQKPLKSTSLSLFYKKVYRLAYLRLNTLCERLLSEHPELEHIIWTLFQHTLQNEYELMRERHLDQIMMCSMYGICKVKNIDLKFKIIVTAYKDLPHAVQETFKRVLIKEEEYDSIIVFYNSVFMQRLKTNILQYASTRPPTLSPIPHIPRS
# method description: fluorescence polarisation; 25 °C; unlabeled Rb^P titrated against 1.5 nM TMR-E2F1^TD or 7.5 nM TMR-E7^LxCxE; 25 mM Tris pH 8.0, 200 mM NaCl, 1 mM DTT, 0.1% Tween-20; 2 min incubation; quadratic fit; apparent Kd for the variants, Kd for WT
# condition: both partners purified
No end group written: not given here. TMR = tetramethyl rhodamine dye

{"binder": "{TMR}-GEGIRDLFDCDFGDLTPLD (also called E2F^TD; source: synthetic peptide, bought: GenScript) [TMR-E2F1^TD, peptide of the E2F1 transactivation domain]", "Kd [nM]": 29}
{"binder": "DLYCYEQLN (also: TMR label, position not given here, source: synthetic peptide, bought: GenScript) [TMR-E7^LxCxE, LxCxE peptide of the E7 oncoprotein from HPV]", "Kd [nM]": 9}
